Target: T1, IL-11 (UniProt P20809 22-199, limits assumed)
T1 construct: also called IL-11 protein; IL-11 antigen
T1 sequence (looked up): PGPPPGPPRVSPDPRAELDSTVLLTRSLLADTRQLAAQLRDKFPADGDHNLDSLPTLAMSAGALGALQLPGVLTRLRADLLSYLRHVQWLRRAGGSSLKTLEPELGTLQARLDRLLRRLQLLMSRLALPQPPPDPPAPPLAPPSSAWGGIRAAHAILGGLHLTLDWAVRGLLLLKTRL
Assay: SPR Biacore, scFv captured, IL-11 400 nM
Measured endpoint: koff (s⁻¹)
# value in s⁻¹; strip the unit string

Value of measured koff for the entry “VH1+VL2”-scFv (scFv) scFv: QVQLVQSGAEVKKPGASVKVSCKASDYTFTNYWLGWVRQAPGQGLEWMGHIYPGGGYTNYNEKFKGRVTMTRDTSTSTVYMELSSLRSEDTAVYYCARVRSGNDALDFWGQGTLVTVSSGGGGSGGGGSGGGGSEIVLTQSPATLSLSPGERATLSCRASESVDEYGISFMNWYQQKPGQAPRLLIYSASNQGSGIPARFSGSGSGTDFTLTISSLEPEDFAVYFCQQSKEVPWTFGGGTKLEIK : 0.000461

Lookup result for “VH2+VL3”-scFv (scFv) scFv: QVQLVQSGAEVKKPGASVKVSCKASDYTFTNYWLGWVRQAPGQGLEWIGHIYPGGGYTNYNEKFKGRVTMTADTSTSTVYMELSSLRSEDTAVYFCARVRSGNDALDFWGQGTLVTVSSGGGGSGGGGSGGGGSEIVLTQSPATLSLSPGERATLSCRASESVDEYGISFMNWFQQKPGQAPRLLIYSASNQGSGIPARFSGSGSGTDFTLTISSLEPEDFAVYFCQQSKEVPWTFGGGTKLEIK ; measured koff: 0.000541

Reported koff ( “VH4+VL1”-scFv (scFv) scFv: QVQLVQSGAEVKKPGASVKVSCKASDYTFTNYWLGWVRQAPGHGLEWIGHIYPGGGYTNYNEKFKGRATLTADTSTSTVYMELSSLRSEDTAVYFCARVRSGNDALDFWGQGTLVTVSSGGGGSGGGGSGGGGSEIVLTQSPATLSLSPGERATLSCRASESVDEYGISFMNWYQQKPGQAPRLLIYSASNQGSGIPARFSGSGSGTDFTLTISSLEPEDFAVYYCQQSKEVPWTFGGGTKLEIK ) = 0.00084

Entry source: patent US20250002574A1
